# test name: chemical genetic growth profiling, strain panel (AID 1159580);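 further: tested at 20 µM; growth read once vehicle control cultures reached saturation at 30 °C; lower values mean less growth of the strain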
# assay conditions: S. cerevisiae deletion strains, growth OD, locus YDL005C, strain med2
Counter-ions that a name gives are not always drawn. In all, about 5,500 compounds went through this assay and about 2,000 (36%) were called active. About 18% were inconclusive and are not listed. No stated cut-off is given here; in the data, active means normalized growth mostly below about 0.91 (no sharp cut-off); inconclusive means no clear call, values can overlap the other calls; inactive means mostly above about 0.92. The list shows a part of the results. Where a SMILES comes first, the peptide text is derived from it. The star is where a group is joined. Tfa = O=C(C(F)(F)F)*
Choose one outcome from this list and give only that: active, inactive

Input line: I would be grateful if you could indicate the recorded call for CO/N=C(\C(=O)NC1C(=O)N2C(C(=O)O)=C(COC(N)=O)CSC12)c1ccco1 (centres undefined) .
Output line: inactive

Input line: Check O=c1cc[nH]c(=S)[nH]1 too.
Output line: inactive

Input line: Check CC(C)C(C)/C=C/C(C)C1CCC2C3=CC=C4CC(O)CCC4(C)C3CCC21C (centres undefined) too.
Output line: inactive

Input line: Check Nc1ccc(N=Nc2ccccc2)c(N)n1 too.
Output line: inactive

Input line: Check C=C1C(=O)O[C@@H]2C3O[C@]3(C)CC/C=C(\C)CC[C@@H]12 (some centres undefined) too.
Output line: inactive

Input line: Check CO/N=C(\C(=O)NC1C(=O)N2C(C(=O)OC(C)OC(C)=O)=C(COC(N)=O)CSC12)c1ccco1 (centres undefined) too.
Output line: inactive

Input line: Check C[C@@H]1C(=O)OC2[C@H](O)C34[C@@H]5OC(=O)[C@@]3(O[C@@H]3OC(=O)[C@H](O)[C@@]34[C@H](C(C)(C)C)[C@H]5O)[C@]21O (some centres undefined) too.
Output line: inactive

Input line: Check O=C(Cn1ccnc1[N+](=O)[O-])NCCO too.
Output line: inactive

Input line: Check CC(=O)OCC[C@H](C)CCC=C(C)C too.
Output line: inactive

Input line: Check C[C@H]1COC2=C1C(=O)C(=O)c1c2ccc2c1CCCC2(C)C too.
Output line: active

Input line: Check CCOC(=O)[C@H](CCc1ccccc1)N[C@@H](C)C(=O)N1[C@H](C(=O)O)C[C@@H]2CCC[C@@H]21 too.
Output line: inactive

Input line: Check CC(C)(Oc1ccc(C2CC2(Cl)Cl)cc1)C(=O)O (centres undefined) too.
Output line: inactive

Input line: Check CCN(CC)C(=O)c1cccc(C)c1 too.
Output line: inactive

Input line: Check CC1C[C@H]2CC(=O)[C@H]3CCCN4CCC[C@H]2[C@]34C1 (some centres undefined) too.
Output line: inactive

Input line: Check OCc1ccccc1O too.
Output line: inactive

Input line: Check CN1C(C(=O)Nc2ccccn2)=C(O)c2ccccc2S1(=O)=O too.
Output line: inactive

Input line: Check CC(C)C(NC(=O)C(Cc1ccc(O)cc1)NC(=O)C(NC(=O)C(F)(F)F)C(C)C)C(=O)O (stereo not drawn) (Tfa-Val-Tyr-Val-OH; configuration not given here) too.
Output line: inactive

Input line: Check Cc1coc2c1C(=O)C(=O)c1c-2ccc2c1CCCC2(C)C too.
Output line: inactive

Input line: Check CC(=O)OC1CCC2(C)C(=CC=C3C2CCC2(C)C3CCC2C(C)/C=C/C(C)C(C)C)C1(C)C (centres undefined) too.
Output line: inactive

Input line: Check CC(C)COCC(CN(Cc1ccccc1)c1ccccc1)N1CCCC1 (centres undefined) too.
Output line: inactive

Input line: Check C=CCSCC1Nc2cc(Cl)c(S(N)(=O)=O)cc2S(=O)(=O)N1 (centres undefined) too.
Output line: inactive

Input line: Check NC(CO)C(=O)NNCc1ccc(O)c(O)c1O (centres undefined) too.
Output line: inactive

Input line: Check CCC(C)C(=O)O[C@H]1C[C@H](O)C=C2C=C[C@H](C)[C@H](CC[C@@H](O)C[C@@H](O)CC(=O)O)C21 (some centres undefined) too.
Output line: inactive

Input line: Check Cc1cc(NC(=O)C2=C(O)c3ccccc3S(=O)(=O)N2C)no1 too.
Output line: inactive

Input line: Check COC(=O)C1=CCCN(C)C1 too.
Output line: inactive

Input line: Check C#CCCCCCCCCCCCC(O)CC(O)CO (centres undefined) too.
Output line: inactive

Input line: Check C=CCCCCCCCCCCCC(O)CC(O)COC(C)=O (centres undefined) (tested in a mixture with another compound) too.
Output line: inactive

Input line: Check Nc1ccn(C2O[C@H](CO)[C@@H](O)[C@@H]2O)c(=O)n1 (some centres undefined) too.
Output line: inactive

Input line: Check CCCCCCCCCCCCCCCC(=O)OC1C(SC)OC(C(NC(=O)C2CC(CCC)CN2C)C(C)Cl)C(O)C1O (centres undefined) too.
Output line: inactive
